Values from patent US5618829A

tested on: KB cell; experiment: Cancer cell growth inhibitory activity (KB cells, MTT); format: cell-based; conditions: Homo sapiens, KB, 72 h, read-out: Inhibitory activity (IC50, μM) Cancer cell growth
Measurement label: IC50

Below are worked cases with known answers.
COc1ccc(C(=O)/C=C/C(=O)NC2CCCCC2)cc1OC
0.22 µM
O=C(/C=C/C(=O)c1ccc(O)c(O)c1)Nc1ccccc1
1.85 µM
O=C(/C=C/C(=O)c1ccc(O)c(O)c1)Nc1cccc(Cl)c1
1.25 µM
COc1ccc(C(=O)/C=C/C(=O)NC(=O)c2ccccc2)cc1OC
11.5 µM

Continue with the compound presented below.
Fill in: IC50 of "COc1ccc(C(=O)/C=C/C(=O)Nc2ccccc2Cl)cc1OC" is ___ 1.2 µM

----------
Item-by-item account of IC50
Target: EGF receptor (Homo sapiens, UniProt P00533)
Construct: The cell membrane fraction, a partially purified EGF receptor, was used as an enzyme source; endogenous in cells; host or cells: A431 (human epidermoid carcinoma), cell membrane fraction
Sequence (P00533 25-1210): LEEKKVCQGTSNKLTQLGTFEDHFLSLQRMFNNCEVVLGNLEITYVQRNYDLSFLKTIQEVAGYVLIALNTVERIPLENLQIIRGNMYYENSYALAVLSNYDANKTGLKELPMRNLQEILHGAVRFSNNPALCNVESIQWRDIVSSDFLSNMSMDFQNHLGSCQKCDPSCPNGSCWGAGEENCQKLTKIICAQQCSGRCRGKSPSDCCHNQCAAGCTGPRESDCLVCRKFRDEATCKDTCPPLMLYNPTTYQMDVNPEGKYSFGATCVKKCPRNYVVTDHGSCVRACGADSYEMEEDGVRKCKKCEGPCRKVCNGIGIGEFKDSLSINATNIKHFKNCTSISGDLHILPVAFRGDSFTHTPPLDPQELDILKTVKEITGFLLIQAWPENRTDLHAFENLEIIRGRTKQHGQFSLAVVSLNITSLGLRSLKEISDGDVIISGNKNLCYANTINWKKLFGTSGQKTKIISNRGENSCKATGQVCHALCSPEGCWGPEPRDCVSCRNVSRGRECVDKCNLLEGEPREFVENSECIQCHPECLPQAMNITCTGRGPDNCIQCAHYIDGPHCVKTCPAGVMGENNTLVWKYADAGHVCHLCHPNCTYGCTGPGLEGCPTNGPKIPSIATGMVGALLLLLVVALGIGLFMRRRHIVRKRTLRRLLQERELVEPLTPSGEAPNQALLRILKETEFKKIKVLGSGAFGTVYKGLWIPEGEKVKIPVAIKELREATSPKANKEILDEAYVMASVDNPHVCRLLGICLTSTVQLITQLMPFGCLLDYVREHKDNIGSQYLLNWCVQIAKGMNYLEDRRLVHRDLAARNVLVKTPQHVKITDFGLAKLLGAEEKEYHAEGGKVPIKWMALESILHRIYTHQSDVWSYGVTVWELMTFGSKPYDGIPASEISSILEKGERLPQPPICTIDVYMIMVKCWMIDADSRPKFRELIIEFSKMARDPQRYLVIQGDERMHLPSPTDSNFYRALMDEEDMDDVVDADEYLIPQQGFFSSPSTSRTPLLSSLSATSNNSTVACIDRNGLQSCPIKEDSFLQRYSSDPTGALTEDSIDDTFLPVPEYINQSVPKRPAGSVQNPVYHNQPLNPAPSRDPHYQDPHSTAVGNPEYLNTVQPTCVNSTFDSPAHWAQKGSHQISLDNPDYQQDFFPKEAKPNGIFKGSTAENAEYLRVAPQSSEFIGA
Assay: Tyrosine kinase inhibitory activity (partially purified EGF receptor from A431 cell membrane fraction, RR-SRC peptide substrate)
Type: biochemical
Details: partially purified EGF receptor from A431 cells, 100 ng EGF, 10 μM γ-32P-ATP, 30 minutes under ice-cooling
Protocol: The compounds of the invention were evaluated their tyrosine kinase inhibitory activities with partially purified EGF (epidermal cell growth factor) receptor preparation and cell growth inhibitory activity with human cancer cells. Tyrosine Kinase Inhibitory Activity Tyrosine kinase inhibitory activities of the compounds of the invention were determined as the inhibitory activities of the compounds added into the tyrosine kinase activity assay system. The method employed is detailed below. […]
Quick note: give the figure in µM, leave out the unit.

So what's the measured IC50 for this one? O=C(/C=C/C(=O)c1ccc(O)c(O)c1)Nc1ccccc1 [Compound 60] 1

Please do the same for COc1ccc(C(=O)/C=C/C(=O)Nc2cccc(Cl)c2)cc1OC [Compound 74] as well. 0.76

----------
target: EGF receptor (Homo sapiens); construct: The cell membrane fraction, a partially purified EGF receptor, was used as an enzyme source; endogenous in cells; host or cells: A431 (human epidermoid carcinoma), cell membrane fraction; experiment: Tyrosine kinase inhibitory activity (partially purified EGF receptor from A431 cell membrane fraction, RR-SRC peptide substrate); format: biochemical; details: partially purified EGF receptor from A431 cells, 100 ng EGF, 10 μM γ-32P-ATP, 30 minutes under ice-cooling
Measurement label: IC50
The number alone won't do; follow it with the unit.

Some entries whose results are on file:
COc1ccc(C(=O)/C=C/C(=O)Nc2ccccc2Cl)cc1OC
1.2 µM
COc1ccc(C(=O)/C=C/C(=O)NC2CCCCC2)cc1OC
1 µM

// below: IC50 requested for another compound
Write down the reported IC50 of "O=C(/C=C/C(=O)c1ccc(O)c(O)c1)Nc1cccc(Cl)c1" , test system: EGF receptor (Homo sapiens). 4.3 µM
